# targetSystem: human IR (hIR) (Homo sapiens)
# Construct: containing amino acid residues 979-1382 of human IR
# measurementDescription: TR-FRET kinase assay of purified hIR
# testContext: activated hIR 0.5 nM, 10 μM ATP, values given as pIC50 category
# Experimental: Time Resolved Fluorescence Resonance Energy Transfer (TR-FRET) assays were carried out on the exemplified compounds as follows: Purity is determined by HPLC. The calculated molecular mass of the peptide is 2216 dalton. […] True peptide concentration is determined by amino acid analysis. […] Assays are performed in 384-well (Greiner, Catalog No. 784076) microtiter plates. […] Compounds, titrated in DMSO, are evaluated at eleven concentrations ranging from 50 μM to 0.2 nM. […]
quantityKind: IC50

Cc1ccc(NC(=O)CN(C)C)cc1Nc1nc(Nc2ccccc2C(=O)NO)c2cc[nH]c2n1 = 0.251 to 1 nM

Let's switch to this compound now.
Fill blank: measured IC50 of the compound COc1cc(C2CCN(C(C)C)CC2)ccc1Nc1nc(Nc2cc(F)c(F)cc2C(N)=O)c2cc[nH]c2n1 is ____.
0.251 to 1 nM

* * *

# targetSystem: human IR (hIR) (Homo sapiens, UniProt P06213)
# Construct: containing amino acid residues 979-1382 of human IR
# Sequence (P06213 979-1382): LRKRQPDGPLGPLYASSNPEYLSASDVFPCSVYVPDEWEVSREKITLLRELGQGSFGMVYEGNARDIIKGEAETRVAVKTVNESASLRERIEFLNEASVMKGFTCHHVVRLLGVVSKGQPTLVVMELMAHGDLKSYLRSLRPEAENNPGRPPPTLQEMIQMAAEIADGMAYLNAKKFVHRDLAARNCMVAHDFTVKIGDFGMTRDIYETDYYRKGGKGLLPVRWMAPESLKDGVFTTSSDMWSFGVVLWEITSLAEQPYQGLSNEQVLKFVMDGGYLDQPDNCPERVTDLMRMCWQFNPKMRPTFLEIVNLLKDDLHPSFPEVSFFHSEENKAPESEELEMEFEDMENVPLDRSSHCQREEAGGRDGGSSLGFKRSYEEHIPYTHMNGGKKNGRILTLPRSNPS
# measurementDescription: TR-FRET kinase assay of purified hIR
# testContext: activated hIR 0.5 nM, 10 μM ATP, values given as pIC50 category
Recorded IC50, one value per entry.

Past entries and their recorded results:
CCCN1CCN(c2ccc(Nc3nc(Nc4ccccc4C(N)=O)c4cc[nH]c4n3)c(OC)c2)CC1 = 0.251 to 1 nM
CCCN(CCC)[C@@H](C)C(=O)N1CCc2cc(OC)c(Nc3nc(Nc4cccc(F)c4C(N)=O)c4cc[nH]c4n3)cc21 = 1.26 to 3.98 nM
COc1cc2c(cc1Nc1nc(Nc3cccc4c3C(=O)NC4)c3cc[nH]c3n1)N(C(=O)CN1CCCC1)CCC2 = 0.251 to 1 nM

Please state recorded IC50 (tested on human IR (hIR) (Homo sapiens, UniProt P06213)) of CCCN1CCC=C(c2ccc(Nc3nc(Nc4ccccc4C(N)=O)c4cc[nH]c4n3)c(C)c2)C1
5.01 to 158 nM

Try the compound COc1cc(C2CCN(C(C)C)CC2)ccc1Nc1nc(Nc2ccc(F)cc2C(N)=O)c2cc[nH]c2n1
0.251 to 1 nM

Try the compound CCCNC(=O)c1c(F)cccc1Nc1nc(Nc2cc3c(cc2OC)CCN3C(=O)CN(C)C)nc2[nH]ccc12
1.26 to 3.98 nM

Try the compound CNC(=O)c1c(F)cccc1Nc1nc(Nc2cc3c(cc2OC)C(C)(C)CC(=O)N3)nc2[nH]ccc12
1.26 to 3.98 nM

* * *

# targetSystem: NIH-3T3 cells overexpressing human IGF-1R (Homo sapiens)
# Sequence (P08069 31-1367): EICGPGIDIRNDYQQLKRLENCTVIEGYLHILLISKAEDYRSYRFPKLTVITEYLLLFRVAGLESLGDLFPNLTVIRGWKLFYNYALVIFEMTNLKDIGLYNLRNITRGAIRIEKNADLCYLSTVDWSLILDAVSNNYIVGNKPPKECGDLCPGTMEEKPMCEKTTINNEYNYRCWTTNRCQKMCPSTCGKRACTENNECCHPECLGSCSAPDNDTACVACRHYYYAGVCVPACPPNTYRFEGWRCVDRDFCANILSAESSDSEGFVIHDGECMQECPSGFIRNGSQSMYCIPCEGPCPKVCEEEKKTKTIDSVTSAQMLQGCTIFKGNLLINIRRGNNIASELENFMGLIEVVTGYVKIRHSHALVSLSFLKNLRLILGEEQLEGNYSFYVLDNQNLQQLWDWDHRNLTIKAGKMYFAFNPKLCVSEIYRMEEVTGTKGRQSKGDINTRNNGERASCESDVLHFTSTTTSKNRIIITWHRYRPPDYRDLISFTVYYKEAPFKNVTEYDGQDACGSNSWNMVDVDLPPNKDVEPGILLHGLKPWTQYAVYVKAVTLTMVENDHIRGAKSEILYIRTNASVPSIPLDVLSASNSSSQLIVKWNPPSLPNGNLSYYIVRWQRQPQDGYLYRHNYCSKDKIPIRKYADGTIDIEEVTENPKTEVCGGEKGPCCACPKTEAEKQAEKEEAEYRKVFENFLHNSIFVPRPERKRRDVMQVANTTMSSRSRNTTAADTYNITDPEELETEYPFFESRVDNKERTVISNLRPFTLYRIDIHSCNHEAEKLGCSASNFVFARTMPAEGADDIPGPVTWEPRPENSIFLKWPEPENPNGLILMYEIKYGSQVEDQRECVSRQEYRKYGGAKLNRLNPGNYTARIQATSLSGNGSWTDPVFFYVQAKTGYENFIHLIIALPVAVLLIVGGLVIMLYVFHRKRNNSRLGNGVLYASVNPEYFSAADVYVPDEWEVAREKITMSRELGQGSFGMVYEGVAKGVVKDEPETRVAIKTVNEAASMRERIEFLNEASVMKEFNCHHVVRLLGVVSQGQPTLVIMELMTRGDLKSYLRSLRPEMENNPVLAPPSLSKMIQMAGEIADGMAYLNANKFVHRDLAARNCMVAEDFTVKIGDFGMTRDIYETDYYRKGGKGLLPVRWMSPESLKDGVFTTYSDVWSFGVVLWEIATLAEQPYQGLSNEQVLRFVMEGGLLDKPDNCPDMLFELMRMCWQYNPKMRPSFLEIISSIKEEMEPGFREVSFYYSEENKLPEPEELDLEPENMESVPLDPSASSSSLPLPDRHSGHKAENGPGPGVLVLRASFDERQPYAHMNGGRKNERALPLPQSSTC
# measurementDescription: IGF-1R cellular autophosphorylation (DELFIA)
quantityKind: IC50

CCCN1CCC=C(c2ccc(Nc3nc(Nc4ccc(OC)cc4C(N)=O)c4cc[nH]c4n3)c(OC)c2)C1 = 100 to 500 nM
COc1cc(C2=CCCN(C(C)C)C2)ccc1Nc1nc(Nc2cc(F)c(F)cc2C(N)=O)c2cc[nH]c2n1 = < 100 nM

Please state recorded IC50 (tested on NIH-3T3 cells overexpressing human IGF-1R (Homo sapiens)) of COc1cc(OCCCN2CCN(C)CC2)ccc1Nc1nc(Nc2cccc(F)c2C(N)=O)c2cc[nH]c2n1
100 to 500 nM

Try the compound CNC(=O)c1c(F)cccc1Nc1nc(Nc2cc3c(cc2OC)C(C)(C)CN3C(=O)CN(C)C)nc2[nH]ccc12
< 100 nM

Try the compound COc1cc2c(cc1Nc1nc(Nc3cccc(F)c3C(N)=O)c3cc[nH]c3n1)N(C(=O)CN(C)OC)CC2
> 500 nM

Try the compound COc1cc2c(cc1Nc1nc(Nc3cccc(F)c3C(N)=O)c3cc[nH]c3n1)CN(CCCN(C)C)CC2
> 500 nM

* * *

# targetSystem: human IR (hIR) (Homo sapiens, UniProt P06213)
# Construct: containing amino acid residues 979-1382 of human IR; made in house; host or cells: Sf9 cells (baculovirus), same process as hIGF1R
# measurementDescription: TR-FRET kinase assay of purified hIR
# Format: biochemical
# testContext: activated hIR 0.5 nM, 10 μM ATP, values given as pIC50 category
Recorded IC50, one value per entry.

Past entries and their recorded results:
COc1cc(N2CCN(C(C)C)CC2)ccc1Nc1nc(Nc2cc(F)c(F)cc2C(N)=O)c2cc[nH]c2n1 = 0.251 to 1 nM
COc1cc2c(cc1Nc1nc(Nc3cccc(F)c3C(N)=O)c3cc[nH]c3n1)CN(C(=O)CCN1CCN(C(C)C)CC1)CC2 = 5.01 to 158 nM
CNC(=O)c1c(F)cccc1Nc1nc(Nc2cc(NC(=O)CN(C)C)c(C)cc2OC)nc2[nH]ccc12 = 0.251 to 1 nM

Let's switch to this compound now.
Please state recorded IC50 (tested on human IR (hIR) (Homo sapiens, UniProt P06213)) of COc1ccc(C(N)=O)c(Nc2nc(Nc3ccc(N4CCOC[C@@H]4C)cc3OC)nc3[nH]ccc23)c1
1.26 to 3.98 nM

* * *

# targetSystem: NIH-3T3 cells overexpressing human IGF-1R (Homo sapiens)
# measurementDescription: IGF-1R cellular autophosphorylation (DELFIA)
pIC50: −log10 of the molar value.
Recorded pIC50, one value per entry.

Past entries and their recorded results:
CCCN1CCCC(c2ccc(Nc3nc(Nc4cc(F)ccc4C(N)=O)c4cc[nH]c4n3)c(OC)c2)C1 (centres unmarked) = > 7.00
COc1cc2c(cc1Nc1nc(Nc3cccc(F)c3C(N)=O)c3cc[nH]c3n1)N(C(=O)[C@@H]1CCCN1C)CC2 = 6.30 to 7.00
CCN(CC)CC(=O)N1CCc2cc(OC)c(Nc3nc(Nc4cccc(F)c4C(N)=O)c4cc[nH]c4n3)cc21 = > 7.00

Fill blank: measured pIC50 of the molecule COc1cc2c(cc1Nc1nc(Nc3cc(F)cc(F)c3C(N)=O)c3cc[nH]c3n1)CN(CCF)CC2 is ____.
< 6.30

* * *

# targetSystem: human IGF1R (hIGF1R) (Homo sapiens, UniProt P08069)
# Construct: containing amino acid residues 957-1367 of human IGF1R; made in house; host or cells: Sf9 cells (baculovirus)
# Sequence (P08069 957-1367): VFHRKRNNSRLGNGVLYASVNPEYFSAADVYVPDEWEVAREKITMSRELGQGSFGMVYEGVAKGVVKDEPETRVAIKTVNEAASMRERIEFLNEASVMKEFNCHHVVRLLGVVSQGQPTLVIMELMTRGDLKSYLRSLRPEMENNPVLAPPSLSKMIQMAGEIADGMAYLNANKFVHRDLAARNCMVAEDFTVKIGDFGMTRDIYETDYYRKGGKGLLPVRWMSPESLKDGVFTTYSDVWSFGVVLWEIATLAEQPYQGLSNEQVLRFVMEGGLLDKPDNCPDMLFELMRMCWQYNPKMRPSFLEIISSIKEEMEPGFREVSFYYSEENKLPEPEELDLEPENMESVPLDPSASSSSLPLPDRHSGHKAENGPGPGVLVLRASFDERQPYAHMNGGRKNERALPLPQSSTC
# measurementDescription: TR-FRET kinase assay of purified hIGF1R
# Format: biochemical
# testContext: activated hIGF1R 0.5 nM, 10 μM ATP, values given as pIC50 category, read-out: IGF-1R pIC50 (converted)
quantityKind: IC50

CCCN1CCC=C(c2ccc(Nc3nc(Nc4ccc(OC)cc4C(N)=O)c4cc[nH]c4n3)c(C)c2)C1 [Example 37] = 5.01 to 200 nM

Fill blank: measured IC50 of the compound COc1cc(N2CCN(C(C)C)CC2)c(F)cc1Nc1nc(Nc2cccc(F)c2C(N)=O)c2cc[nH]c2n1 [Example 48] is ____.
1.26 to 3.98 nM

Try the compound COc1cc(C2CCCN(C)C2)ccc1Nc1nc(Nc2ccccc2C(N)=O)c2cc[nH]c2n1 (stereo not shown) [Example 5]
0.251 to 1 nM

Try the compound COc1cc(C2=CCCN(C(C)C)C2)ccc1Nc1nc(Nc2ccccc2C(N)=O)c2cc[nH]c2n1 [Example 6]
0.251 to 1 nM

* * *

# targetSystem: NIH-3T3 cells overexpressing human IR (Homo sapiens, UniProt P06213)
# Sequence (P06213 28-1382): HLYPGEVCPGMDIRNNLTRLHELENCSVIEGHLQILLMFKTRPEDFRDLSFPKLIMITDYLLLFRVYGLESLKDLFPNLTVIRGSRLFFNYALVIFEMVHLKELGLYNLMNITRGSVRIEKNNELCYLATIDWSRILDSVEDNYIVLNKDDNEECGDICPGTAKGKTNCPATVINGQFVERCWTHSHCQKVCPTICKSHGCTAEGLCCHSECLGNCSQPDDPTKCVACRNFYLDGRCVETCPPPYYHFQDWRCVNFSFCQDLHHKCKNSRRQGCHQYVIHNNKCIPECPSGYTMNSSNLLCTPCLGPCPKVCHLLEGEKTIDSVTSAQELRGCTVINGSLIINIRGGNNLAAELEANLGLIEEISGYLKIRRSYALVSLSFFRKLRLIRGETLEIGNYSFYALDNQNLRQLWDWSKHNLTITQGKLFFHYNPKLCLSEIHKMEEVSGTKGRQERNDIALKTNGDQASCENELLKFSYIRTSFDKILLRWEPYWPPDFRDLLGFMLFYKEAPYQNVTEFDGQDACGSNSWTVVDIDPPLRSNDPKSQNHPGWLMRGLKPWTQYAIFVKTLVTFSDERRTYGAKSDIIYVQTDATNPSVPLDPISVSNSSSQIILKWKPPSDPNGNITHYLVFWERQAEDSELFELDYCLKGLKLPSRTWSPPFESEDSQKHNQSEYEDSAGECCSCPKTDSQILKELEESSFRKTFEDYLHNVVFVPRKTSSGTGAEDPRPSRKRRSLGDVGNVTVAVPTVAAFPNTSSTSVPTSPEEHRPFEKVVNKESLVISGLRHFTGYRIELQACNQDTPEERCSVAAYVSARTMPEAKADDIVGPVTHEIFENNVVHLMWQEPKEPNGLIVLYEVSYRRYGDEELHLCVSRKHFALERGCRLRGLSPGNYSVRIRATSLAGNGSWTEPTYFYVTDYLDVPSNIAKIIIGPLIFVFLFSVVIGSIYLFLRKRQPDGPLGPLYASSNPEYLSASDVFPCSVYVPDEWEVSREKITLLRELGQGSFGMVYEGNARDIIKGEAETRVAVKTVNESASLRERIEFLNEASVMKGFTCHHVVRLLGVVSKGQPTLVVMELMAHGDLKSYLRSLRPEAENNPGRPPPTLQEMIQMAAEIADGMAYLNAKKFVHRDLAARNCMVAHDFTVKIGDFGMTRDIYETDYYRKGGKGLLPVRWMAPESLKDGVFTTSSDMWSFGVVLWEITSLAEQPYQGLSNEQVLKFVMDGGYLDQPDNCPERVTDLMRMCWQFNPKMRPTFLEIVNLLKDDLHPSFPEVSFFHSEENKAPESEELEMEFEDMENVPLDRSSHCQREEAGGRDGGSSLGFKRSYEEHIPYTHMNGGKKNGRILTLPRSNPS
# measurementDescription: IR cellular autophosphorylation (DELFIA)
# testContext: 2 h compound, insulin 3 ug/ml for 15 minutes, IC50 category
# Experimental: NIH-3T3 cells overexpressing human IGF-1R or IR were plated in 96-well plates (10,000 cells/well) in culture media containing 10% fetal bovine serum and incubated at 37° C. in a 5% CO2 incubator. Twenty four hours post-plating, cells were treated with different concentrations of test compounds ranging from 30 uM to 1.5 nM. […] The fluorescence signal for cells treated with compounds was expressed as percent relative to 100% stimulation (IGF-1 or insulin stimulated signal).
Recorded IC50, one value per entry.

Past entries and their recorded results:
COc1cc2c(cc1Nc1nc(Nc3cccc(F)c3C(N)=O)c3c(C)c[nH]c3n1)N(C(=O)CN(C)C)CC2 = 100 to 500 nM
CNC(=O)c1c(F)cccc1Nc1nc(Nc2cc3c(cc2OC)CCC(=O)N3)nc2[nH]ccc12 = > 500 nM
CCCN1CCC=C(c2ccc(Nc3nc(Nc4ccc(Cl)cc4C(N)=O)c4cc[nH]c4n3)c(OC)c2)C1 = 100 to 500 nM

Fill blank: measured IC50 of the molecule COc1cc2c(cc1Nc1nc(Nc3cccc(F)c3C(N)=O)c3cc[nH]c3n1)CCN2C(=O)CN(C)C is ____.
> 500 nM

Try the molecule CNC(=O)c1c(F)cccc1Nc1nc(Nc2cc3c(cc2OC)CCN3C(=O)COC)nc2[nH]ccc12
> 500 nM

Try the molecule CNC(=O)c1c(F)cccc1Nc1nc(Nc2cc3c(cc2OC)C(C)(C)CN3C(=O)CN(C)C)nc2[nH]ccc12
< 100 nM

Try the molecule CCCN1CCCC(c2ccc(Nc3nc(Nc4cc(F)ccc4C(N)=O)c4cc[nH]c4n3)c(OC)c2)C1 (centres unmarked)
100 to 500 nM

Try the molecule COc1cc(C)c(N(C)C(=O)CN(C)C)cc1Nc1nc(Nc2cccc(F)c2C(N)=O)c2cc[nH]c2n1
> 500 nM

Try the molecule COc1cc(N2CCN(C(C)C)CC2)ccc1Nc1nc(Nc2cc(F)cc(F)c2C(N)=O)c2cc[nH]c2n1
< 100 nM

Try the molecule COc1c(Nc2nc(Nc3cccc(F)c3C(N)=O)c3cc[nH]c3n2)ccc(N2CCN(C(C)C)CC2)c1C
> 500 nM

Try the molecule COc1cc(N2CCN(C(C)C)CC2)c(C)cc1Nc1nc(Nc2cc(F)cc(F)c2C(N)=O)c2cc[nH]c2n1
< 100 nM

Try the molecule COc1cc(N2CCOC[C@@H]2C)ccc1Nc1nc(Nc2cc(F)ccc2C(N)=O)c2cc[nH]c2n1
< 100 nM

Try the molecule COc1cc(OCCCN2CCN(C)CC2)ccc1Nc1nc(Nc2cccc(F)c2C(N)=O)c2cc[nH]c2n1
100 to 500 nM

Try the molecule COc1cc(N2CCCN(C)CC2)ccc1Nc1nc(Nc2cccc(F)c2C(N)=O)c2cc[nH]c2n1
100 to 500 nM

Try the molecule CNC(=O)c1c(F)cccc1Nc1nc(Nc2cc3c(cc2OC)CCCN3C(=O)CN(C)C)nc2[nH]cc(C)c12
< 100 nM

Try the molecule COc1cc2c(cc1Nc1nc(Nc3cc(F)cc(F)c3C(=O)NCC(C)C)c3cc[nH]c3n1)N(C(=O)CN(C)C)CC2
> 500 nM
